# Test system: F1 hybrid maize plants
# assayNotes: trait efficacy field trial, quizalofop-P pressure screening, F1 hybrid
# Format: in vivo
# experimentalSetup: CTP A; crop injury percentage; 0.64 lb ai/acre at VE-V2, V4, V8
# Procedure: Separate trait efficacy field trials for quizalofop-P and 2,4-D pressure screening were conducted at one location each with F1 hybrid transgenic plants produced by crossing an inbred plant containing maize event MON89034 with an R1 plant containing MON-HT1, MON-HT2, MON-HT8, MON-HT9, and MON-HT10 with and without operably linked CTP sequences. Transgenic F1 hybrid plants containing maize events NK603×MON89034 were used for comparison as a control. […]

molecule | 8X Qizalofop-P CIPV4
MON-HT9: engineered oxygenase protein, amino acid sequence SEQ ID NO:40 (protein) MHAALTPLTNKYRFIDVQPLTGVLGAEITGVDLREPLDDSTWNEILDAFHTYQVIYFPAQQITNEQHISFSRRFGPVDPVPLLKSIEGYPEVQMIRREANESGRILGDDWHTDSTFLDAPPAAVVMRAIEVPEYGGDTGFLSMYSAWDTLSDTMKATIEGLNVVHSATRVFGSLYQAQNWRFSNTSVKVMDVDAGDRETVHPLVVSHPVTGRRALYCNQVYCQRIEGMTDAESKCLLQFLYEHATKFDFTCRVRWKKDQVLVWDNLCTMHRAVPDYAGKFRYLTRTTVAGDRPAR | 2.5
MON-HT10: engineered oxygenase protein, amino acid sequence SEQ ID NO:43 (protein) MHAALTPLTNKYRFIDVQPLCGVLGAEITGVDLREPLDDSTWNEILDAFHTYQVIYFPGQAITNEQHIAFSRRFGPVDPVPLLKSIEGYPEVQMIRREANESGRILGDDWHTDSTFLDAPPAAVVMRAIEVPEYGGDTGFLSMYSAWDTLSDTMKATIEGLNVVHSATRVFGSLYQAQNWRFSNTSVKVMDVDAGDRETVHPLVVSHPVTGRRALYCNQVYCQRIEGMTDAESKCLLQFLYEHATKFDFTCRVRWKKDQVLVWDNLCTMHLAVPDYDGKFRYLTRTTVAGDKPSR | 2.5
MON-HT1: engineered oxygenase protein, amino acid sequence SEQ ID NO:14 (protein) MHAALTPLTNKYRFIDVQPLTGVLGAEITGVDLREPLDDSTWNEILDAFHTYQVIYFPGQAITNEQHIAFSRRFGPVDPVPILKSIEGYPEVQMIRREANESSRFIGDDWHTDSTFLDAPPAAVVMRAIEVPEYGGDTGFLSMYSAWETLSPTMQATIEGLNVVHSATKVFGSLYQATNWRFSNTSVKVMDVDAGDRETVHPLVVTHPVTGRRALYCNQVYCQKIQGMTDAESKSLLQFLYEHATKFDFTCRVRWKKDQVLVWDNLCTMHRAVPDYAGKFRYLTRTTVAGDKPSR | 2.5

The reported measurements were obtained from patent US12723255B2.
